# TARGET DESC: T1, recombinant biotinylated CD71 extracellular domain (Sino Biologics) with an N-terminal 6His tag (human, UniProt P02786 89-760, biotinylated (sites not given))
# T1 construct: extracellular domain; also called hCD71; huCD71
# T1 sequence (P02786 other isoform, or with tags, fused parts or gaps): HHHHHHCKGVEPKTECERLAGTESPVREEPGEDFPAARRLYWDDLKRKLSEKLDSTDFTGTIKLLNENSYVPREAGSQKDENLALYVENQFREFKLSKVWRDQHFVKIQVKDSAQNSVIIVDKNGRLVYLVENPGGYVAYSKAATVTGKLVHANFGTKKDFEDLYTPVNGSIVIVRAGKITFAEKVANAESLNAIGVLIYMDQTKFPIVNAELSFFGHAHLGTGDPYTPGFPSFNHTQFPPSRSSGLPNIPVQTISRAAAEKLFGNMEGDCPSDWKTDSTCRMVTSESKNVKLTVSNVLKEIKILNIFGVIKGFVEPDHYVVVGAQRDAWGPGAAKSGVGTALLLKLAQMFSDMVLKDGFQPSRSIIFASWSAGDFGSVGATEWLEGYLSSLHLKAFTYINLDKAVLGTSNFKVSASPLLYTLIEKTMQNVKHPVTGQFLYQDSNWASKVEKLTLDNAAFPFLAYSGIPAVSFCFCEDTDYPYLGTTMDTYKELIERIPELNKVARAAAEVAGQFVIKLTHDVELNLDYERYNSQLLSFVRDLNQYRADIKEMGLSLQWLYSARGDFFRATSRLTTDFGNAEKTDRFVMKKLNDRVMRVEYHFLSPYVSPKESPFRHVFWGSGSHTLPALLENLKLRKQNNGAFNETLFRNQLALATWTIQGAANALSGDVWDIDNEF
# METHOD NOTES: screening ELISA
Reported hCD71 values for the following binders.
The reply should be a number, written without any unit.

- BINDER: "SEQ ID NO 87 (designed binder, FN3 domain) MLPAPKNLVVSRVTEDSARLSWTAPDAAFDSFAIEYYEPVPAGEAIYLDVPGSERSYDLTGLKPGTEYDVTIYGVKGGYYSHPLFASFTT"
  hCD71: "2.83e+06"
- BINDER: "SEQ ID NO 173 (designed binder, FN3 domain) MLPAPKNLVVSRVTEDSARLSWTAPDAAFDSFTIHYRELYVQAIVLTVPGSERSYDLTGLKPGTEYLVMIPGVKGGPTSVPLSAIFTT"
  hCD71: 979000
- BINDER: "SEQ ID NO 224 (designed binder, FN3 domain) MLLAPKNLVVSRVTEDSARLSWTAPDAAFDSFRYLEQGLYGEAIVLTVPGSERSYDLTGLKPGTEYWVEIIGVKGGEYSTPLSAIFTT"
  hCD71: "2.02e+06"

// query hCD71 value for entry SEQ ID NO 197 (designed binder, FN3 domain) MLPAPKNLVVSRVTEDSARLSWTAPDAAFDSFKIDYLEINDNGEAIVLTVPGSERSYDLTGLKPGTEYPVYIWGVKGGYPSSPLSAIFTT
4.57e+06

Same question for SEQ ID NO 286 (designed binder, FN3 domain) MLPAPKNLVVSRVTEDSARLSWTAPDAAFDSFNIYYPEFPVRGEAIVLTVPGSERSYDLTGLKPGTEYVVSIWGVKGGTQSWPLSAIFTT please.
1.27e+06

Same question for SEQ ID NO 164 (designed binder, FN3 domain) MLPAPKNLVVSRVTEDSARLSWTAPDAAFDSFLIPYAETSPSGEAIVLTVPGSERSYDLTGLKPGTEYSVLIHGVKGGHLSDPLSAIFTT please.
2.6e+06
